- method: NCI Yeast Anticancer Drug Screen. Data for the bub3 strain (AID 167)
- measurement.setup: S. cerevisiae bub3 mutant strain, at 50.0 µM, stronger effect = higher value
This is part of a sample that, as a whole, favours compounds with a hit. Of some 79,000 tested, about 15% had one in any assay.
Rule: growth inhibition under 70% gives condition not met, otherwise condition met.

Exam item: Textbook exercise: given the entry O=C1C=C(c2ccccc2)O/C1=C/C(=O)c1ccc(Cl)cc1 , state whether its growth inhibition is greater than or equal to 70%.
Marked response: condition not met

Exam item: Textbook exercise: given the entry O=C(NCCl)Nc1ccccc1 , state whether its growth inhibition is greater than or equal to 70%.
Marked response: condition not met

Exam item: Test whether the compound Cc1ccc(S(=O)(=O)Nc2ccc(C)cc2C)cc1 records growth inhibition of 70% or higher.
Marked response: condition not met

Exam item: Hi, just wondering whether CC[C@]1(O)C[C@H]2[C@@H]3CCc4cc(OC)ccc4[C@H]3CC[C@]2(C)[C@H]1O shows growth inhibition of 70% or higher.
Marked response: condition not met

Exam item: Given CCNc1cc(SC)nc(N)n1 , state whether its growth inhibition is at least 70%.
Marked response: condition not met

Exam item: Could you tell me if the measured growth inhibition of CC(=O)N1C=C2CCC3c4ccccc4NC3C2CC1 (configuration not stated) reaches 70% or more?
Marked response: condition not met

Exam item: State whether the measured growth inhibition reaches 70%, counting equality as reaching it, for COC(=O)c1ccc(CCc2cc(O)ccc2O)cc1
Marked response: condition met

Exam item: Is the recorded value of growth inhibition equal to or greater than 70% for this compound? COc1cccc2c1C1c3ccccc3Sc3cccc(c31)O2 (configuration not stated)
Marked response: condition not met

Exam item: I'd appreciate it if you could say whether CC(=O)SC1C(=O)N(C)C(SC(C)=O)C(=O)N1C (configuration not stated) has growth inhibition at least equal to 70%.
Marked response: condition met

Exam item: Would you say Cc1cccc(C)c1NC(=O)CSC(N)=O shows growth inhibition at minimum 70%?
Marked response: condition met

Exam item: Is the recorded value of growth inhibition equal to or greater than 70% for this compound? CN1C(OCc2ccccc2)c2c(ccc3c2OCO3)C2C=Cc3cc4c(cc3C21)OCO4 (configuration not stated)
Marked response: condition met

----------
- method: NCI Yeast Anticancer Drug Screen. Data for the sgs1 mgt1 strain (AID 161);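 further: 0% = growth of cultures given vehicle only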
- measurement.setup: S. cerevisiae sgs1 mgt1 strain, at 5.0 µM (retest, dose inferred, filed as 0.5), stronger effect = higher value
Compounds without any hit were thinned out: in the full panel of roughly 79,000, 15% have a hit.
reported.endpoint: growth inhibition (%)
A number alone suffices; assume %.

Exam item: May I ask what growth inhibition has been recorded for Cc1c[n+](CC(=O)c2ccc(I)cc2)c(C)s1 ?
Marked response: -1

Exam item: Which growth inhibition is listed for C/C=C/C=C/C(=O)Nc1ccc([N+](=O)[O-])cc1 ?
Marked response: -1

Exam item: Given the entry O=C(c1ccccc1)c1c(CO[N+](=O)[O-])n([O-])c2ccccc2[n+]1=O , report its measured growth inhibition.
Marked response: 10

Exam item: What does the record list as growth inhibition for O=NNc1ccc2cc3ccc(NN=O)cc3nc2c1 ?
Marked response: 7

Exam item: Look up growth inhibition: CCCCCCCCCCCCCCCCCCNC(=S)/N=C/c1c(O)cc(C)oc1=O
Marked response: -15

Exam item: What value of growth inhibition has been recorded for this entry: BrC(Br)=C1C(=C(Br)Br)C(Br)C1Br (stereo unspecified)
Marked response: 72
